Data provenance: PubChem BioAssay (NCATS)

ASSAY_PROCEDURE: qHTS drug screen for cell cycle checkpoint inhibitors in PARPi-resistant BRCA-mutant ovarian cancer cell lines. (AID 1963452)
COND: PEO1/OlaR viability, CellTiter-Glo luminescence, 96 h; hits give low values
METRIC: Z-AUC
Give only the figure.

Query :: Any idea what Z-AUC was measured for `O=C(/C=C/c1ccc(O)cc1)c1ccc(O)cc1O` ?
Result :: 0.396

Query :: Record request: Z-AUC value, item `CN[C@H](CC(C)C)C(=O)N[C@H]1C(=O)N[C@@H](CC(N)=O)C(=O)N[C@H]2C(=O)N[C@H]3C(=O)N[C@H](C(=O)N[C@H](C(=O)O)c4cc(O)cc(O)c4-c4cc3ccc4O)[C@H](O)c3ccc(c(Cl)c3)Oc3cc2cc(c3O[C@@H]2O[C@H](CO)[C@@H](O)[C@H](O)[C@H]2O[C@H]2C[C@](C)(N)[C@H](O)[C@H](C)O2)Oc2ccc(cc2Cl)[C@H]1O`
Result :: -0.534

Query :: Query (molecule): `N=c1ccn2c(n1)O[C@H]1[C@H](O)[C@@H](CO)O[C@H]12` ; field requested: Z-AUC
Result :: -1.72

Query :: Which Z-AUC value belongs to `O=C(Nc1ccc2c(c1)CCN(Cc1ncn[nH]1)C2)c1ccccc1-c1ccc(C(F)(F)F)cc1` ?
Result :: -0.0591

Continue with the molecule presented below.
Query :: Requested field: Z-AUC. Item: `O=C1NC(=O)/C(=C/c2ccc(-c3ccc(F)cc3O)o2)S1`
Result :: -1.15

---

ASSAY_PROCEDURE: qHTS of Trypanosoma Brucei Inhibitors: LOPAC Validation (AID 624147); note: 0% is about no effect
COND: purified enzyme assay, luminescence, 45 min; series mostly up to 57.5 µM
Records with an inconclusive call do not appear. Activity calls are given as the source filed them. Calls follow the shape of the dose curve; as a rule, active = well fitted inhibition curve with a large enough effect; inconclusive = small, poorly fitted or top-dose-only effect; inactive = flat fitted curve, though single readings scatter.
Hi! Could you answer with just one of these? active, inactive

Query :: Which result was noted for this molecule in the test: `O=P(O)(O)C(Cl)(Cl)P(=O)(O)O`
Result :: inactive

New cases:
Query :: What outcome does the record of this test show for `CN1CCC[C@H]1c1cccnc1` ?
Result :: inactive

Query :: # fetch the recorded call for `C[N+](C)(C)CC(=O)[O-]` here
Result :: inactive

Query :: Dear colleague, could you share the recorded outcome for `COC1=C(OC)C(=O)c2ccccc2C1=O` when you have a moment?
Result :: inactive

Query :: Entry CN(C)CCC(c1ccc(Cl)cc1)c1ccccn1 (stereo unspecified) : call = ?
Result :: inactive

Query :: Field: outcome | Entry: `O=[N+]([O-])c1ccc2c(c1)S(=O)(=O)C=C2`
Result :: inactive

Query :: Please indicate how the test categorized `COc1cccc(C(=O)NCCN2CCN(c3ccc(Cl)cc3)CC2)c1` .
Result :: inactive

Query :: Fill in: this test's call for `NCCNC(=O)c1ncsc1-c1cccc(F)c1` is ___
Result :: inactive

---

TEST_TARGET: Peptidyl-prolyl cis-trans isomerase NIMA-interacting 1 (Homo sapiens) (UniProt Q13526)
Sequence (Q13526 whole entry, looked up): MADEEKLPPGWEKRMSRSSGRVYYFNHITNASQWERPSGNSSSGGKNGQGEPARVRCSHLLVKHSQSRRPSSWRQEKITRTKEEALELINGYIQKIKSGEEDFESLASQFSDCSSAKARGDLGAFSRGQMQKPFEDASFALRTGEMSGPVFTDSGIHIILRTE
ASSAY_PROCEDURE: qHTS Validation Assay to Find Inhibitors of Pin1 (AID 504536)
COND: Pin1 fluorescence polarization peptide binding assay; series mostly up to 57.5 µM
Inconclusive results are not listed. Active and inactive are the calls of the source. The call rests on the fitted dose curve; in most records, active means well fitted inhibition curve with a large enough effect in the polarisation, with a control signal flat (not every such curve was filed as active); inconclusive means small, poorly fitted or top-dose-only effect, or effect the other way; inactive means flat fitted curve, though single readings scatter; the % refers to the polarisation.
Give one outcome, nothing more. List: 1.0 (active), 0.0 (inactive)

Worked set:
Query :: Assay result, entry CN1C2CCC1CC(OC(=O)C(O)c1ccccc1)C2 (stereo unspecified) — outcome?
Result :: 0.0

Query :: Short answer needed: outcome of this test for `Oc1cc(O)cc(/C=C/c2ccc(O)c(O)c2)c1` ?
Result :: 0.0

Query :: Per the assay record, what outcome was assigned to `O=[N+]([O-])c1ccc(CSc2ncnc3c2ncn3[C@@H]2O[C@H](CO)[C@@H](O)[C@H]2O)cc1` ?
Result :: 0.0

Query :: Assay result, entry `C=CC(C)=C[C@@]1(C)SC(=O)C(C)=C1O` — outcome?
Result :: 0.0

Query :: Which outcome was entered for the compound NC(=O)C1=CN(C2OC(COP(=O)(O)OP(=O)(O)OC[C@H]3O[C@@H](n4cnc5c(N)ncnc54)[C@H](OP(=O)(O)O)[C@@H]3O)C(O)C2O)C=CC1 (stereo partly specified) in this test?
Result :: 1.0

---
Query :: Outcome logged for `Cc1nc2sccn2c(=O)c1CCN1CCC(=C(c2ccccc2)c2ccc(F)cc2)CC1` in this assay:
Result :: 0.0

Query :: Name the outcome recorded for COc1cccc(OC)c1OCCNCC1COc2ccccc2O1 (stereo unspecified) in the assay.
Result :: 0.0

Query :: Dear all, I need the recorded test outcome for C#C[C@]1(O)CC[C@H]2[C@@H]3CCC4=Cc5oncc5CC4(C)[C@H]3CCC21C (stereo partly specified) , thank you.
Result :: 0.0

Query :: Could you check what this test reported for `CCc1c(C(=O)NCCc2ccc(N3CCCCC3)cc2)[nH]c2ccc(Cl)cc12` ?
Result :: 0.0

Query :: Hello, I am checking results. What call was entered for `Cc1ccc(O)c(N=Nc2ccccc2)n1` ?
Result :: 0.0

Query :: Status in this test for `C=CC(=O)c1ccc(CCCCCC)cc1` ?
Result :: 0.0

---

ASSAY_PROCEDURE: qHTS of pediatric cancer cell lines to identify multiple opportunities for drug repurposing: Primary screen for LAN-5 cells (AID 1347100)
COND: LAN-5 neuroblastoma viability, CellTiter-Glo luminescence, 48 h; series mostly up to 46 µM
Inconclusive results are not listed. The source made the active and inactive calls. Calls come from the whole dose curve; as a rule, active = well fitted cell-killing curve with a large enough effect; inconclusive = small, poorly fitted or top-dose-only effect; inactive = no such curve, though single readings can be large or run the other way.
Bench note: report the call from active, inactive

Solved cases (5 shown):
Query :: Entry `CCCOC(=O)c1ccc(O)cc1` : call = ?
Result :: inactive

Query :: Could you please tell me the result logged for `NC(=O)C(c1ccccc1)(c1ccccc1)[C@@H]1CCN(CCc2ccc3c(c2)CCO3)C1` in this assay?
Result :: inactive

Query :: Lab log entry: `CCOC(=O)c1ccccc1O` — outcome as called in the assay?
Result :: inactive

Query :: Returns: the outcome recorded for CCCCC1C(=O)N(c2ccccc2)N(c2ccc(O)cc2)C1=O (stereo unspecified) in this assay.
Result :: active

Query :: What outcome does the record of this test show for `CC(C)(C)c1nnc(NS(=O)(=O)c2ccc(N)cc2)s1` ?
Result :: inactive

Moving on to another compound below.
Query :: Hey, what did the test say about `Cc1[nH]cnc1CN1CCc2c(c3ccccc3n2C)C1=O` ?
Result :: inactive

---

ASSAY_PROCEDURE: Cellular Toxicity (caspase-3) Mesangial (AID 660);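 note: combined caspase 3 and 7 activity read by Caspase-Glo luminescence; cells exposed to compound for 16 h before the caspase read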
COND: mesangial cells; caspase-3 activation; series mostly up to 91.7 µM
Active and inactive are the calls of the source. Calls come from the whole dose curve; as a rule, active = well fitted activation curve with a large enough effect; inconclusive = small, poorly fitted or top-dose-only effect; inactive = flat fitted curve, though single readings scatter.
Outcomes you can answer with include only these: active, inactive

Query :: Hi team, can someone confirm the assay call for `S=c1[nH]c2ccccc2s1` ?
Result :: inactive

Query :: Assay result, entry CN(C)CCC(c1ccc(Cl)cc1)c1ccccn1 (configuration not stated) — outcome?
Result :: inactive

Query :: Lab log entry: `CN1CCC[C@H]1c1cccnc1` — outcome as called in the assay?
Result :: inactive

Query :: Tell me the recorded outcome of this test for `Oc1ccccc1O` .
Result :: inactive

Query :: What outcome does the record of this test show for `C#C[C@]1(O)CC[C@H]2[C@@H]3CCc4cc(O)ccc4[C@H]3CC[C@@]21C` ?
Result :: inactive

Query :: Returns: the outcome recorded for `Nc1ccc([N+](=O)[O-])cc1O` in this assay.
Result :: inactive

Query :: What did this assay record as the result for `CCCCCCCCCCCCCCCCCC(=O)O` ?
Result :: inactive

Query :: // return assay outcome for CC(C)NCC(O)COc1cccc2ccccc12 (configuration not stated)
Result :: inactive

Others:
Query :: Outcome? `O=c1cc(-c2ccccc2)oc2ccccc12`
Result :: inactive

Query :: Query: recorded result category for `O=C(O)/C=C\C(=O)O` in this test
Result :: inactive

Query :: Please share the test call associated with `O=C(O)c1cc(O)c(O)c(O)c1` .
Result :: inactive

Query :: Would you mind telling me which call this test gave `CN(C)c1ccc(C(=C2C=CC(=[N+](C)C)C=C2)c2ccccc2)cc1` ?
Result :: active

---

ASSAY_PROCEDURE: Cell Viability - LYMP2-005 (AID 967);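 note: cells exposed to compound for 24 h at 37 °C; plate controls were DMSO only for no effect and 92 µM tetraoctylammonium bromide control for full effect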
COND: LYMP2-005 lymphoblastoid cell viability; series mostly up to 92.2 µM
Results filed as inconclusive are left out. Activity calls are given as the source filed them. Calls come from the whole dose curve; as a rule, active = well fitted cell-killing curve with a large enough effect; inconclusive = small, poorly fitted or top-dose-only effect, or effect the other way; inactive = no such curve, though single readings can be large or run the other way.
API: response.call in yes (1) = active, no (0) = inactive

See these solved cases before continuing.
Query :: Lab log entry: CC(C)NCC(O)COc1cccc2ccccc12 (stereo unspecified) — outcome as called in the assay?
Result :: no (0)

Query :: Dear colleague, could you share the recorded outcome for `NCCO` when you have a moment?
Result :: no (0)

Query :: State the result this test recorded for `S=c1[nH]c2ccccc2s1` .
Result :: no (0)

New cases:
Query :: Kindly provide the recorded test outcome for the following compound: `O=C(O)c1cc(O)c(O)c(O)c1`
Result :: no (0)

Query :: Dear all, I need the recorded test outcome for `CCCCCCCCCCCCCCCCCC(=O)O` , thank you.
Result :: no (0)

Query :: Lab log entry: `CCCOC(=O)c1ccc(O)cc1` — outcome as called in the assay?
Result :: no (0)
